These entries and their values trace back to ChEMBL document CHEMBL1136063.

- target_desc: Matrix metalloproteinase-9 (Homo sapiens)
- Sequence (P14780 whole entry): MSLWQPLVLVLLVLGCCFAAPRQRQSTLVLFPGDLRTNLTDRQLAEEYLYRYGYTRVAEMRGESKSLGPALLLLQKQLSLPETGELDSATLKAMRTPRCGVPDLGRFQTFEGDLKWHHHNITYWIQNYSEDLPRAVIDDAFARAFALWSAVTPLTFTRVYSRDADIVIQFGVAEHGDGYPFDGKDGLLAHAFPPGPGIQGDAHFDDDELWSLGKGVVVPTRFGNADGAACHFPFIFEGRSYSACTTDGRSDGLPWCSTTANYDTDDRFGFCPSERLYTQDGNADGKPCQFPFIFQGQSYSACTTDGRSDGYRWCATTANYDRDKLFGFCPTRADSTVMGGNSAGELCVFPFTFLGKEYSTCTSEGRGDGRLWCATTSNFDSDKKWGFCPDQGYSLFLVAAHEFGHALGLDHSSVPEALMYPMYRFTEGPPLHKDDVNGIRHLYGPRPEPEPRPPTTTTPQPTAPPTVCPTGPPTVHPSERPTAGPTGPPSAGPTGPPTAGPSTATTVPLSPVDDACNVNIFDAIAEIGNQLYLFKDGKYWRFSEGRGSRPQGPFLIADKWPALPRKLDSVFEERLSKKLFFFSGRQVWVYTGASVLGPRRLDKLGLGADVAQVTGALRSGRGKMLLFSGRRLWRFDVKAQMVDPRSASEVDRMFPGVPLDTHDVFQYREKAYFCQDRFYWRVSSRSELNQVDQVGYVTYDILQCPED
- test_summary: Percent remaining enzyme activity (RA) in human gelatinase B (matrix metalloprotease-9)
- Parameters: concentration or dose not given beside the values
measurement_kind: residual activity (%)

Prompt: I'd like to know its residual activity. The compound in question is CN(C)C(=O)[C@H](COCc1ccccc1)NC(=O)C(=O)NO
Response: 40

1 = C[C@H](NC(=O)[C@H](Cc1cccc2ccccc12)NC(=O)C(=O)NO)c1ccccc1
2 = C[C@H](NC(=O)C(=O)NO)C(=O)N[C@@H](C)c1ccccc1
3 = C[C@H](NC(=O)C(=O)NO)c1ccc2ccccc2c1
Prompt: Ranking field: residual activity; order: falling. Put the labels in the order asked and list them.
Response: 3, 2, 1
(3: 67%, 2: 35%, 1: 1%)
